Settings: buffer; pH 7.4; 200.0 µM
QUANTITY MEASURED: solubility kinetic

[[record]]
molecule = "COc1ccc(C(=O)OCC(=O)c2ccc(CNC(C)=O)s2)cc1"
endpoint_value = "> 52.1 µg/mL"

[[record]]
molecule = "CC(C)c1ccc(S(=O)(=O)NC2CCS(=O)(=O)C2)cc1 (stereo not drawn)"
endpoint_value = "> 47.6 µg/mL"

[[record]]
molecule = "O=C(O)CCC(=O)Nc1ccc(Br)cc1C(=O)c1ccccc1Cl"
endpoint_value = "> 61.6 µg/mL"


----------
Settings: buffer; pH 7.4; 200.0 µM
QUANTITY MEASURED: solubility kinetic

[[record]]
compound = "CCN(CC)CCNC(=O)c1ccc(N)cc1.Cl"
quantity_measured = "solubility kinetic"
endpoint_value = "> 40.8 µg/mL"

[[record]]
compound = "Nc1cccc(S(=O)(=O)Nc2ccccc2)c1"
quantity_measured = "solubility kinetic"
endpoint_value = "> 37.2 µg/mL"

[[record]]
compound = "NC(=O)CNC(=O)c1ccc(Cl)cc1"
quantity_measured = "solubility kinetic"
endpoint_value = "> 31.9 µg/mL"

